Origin of the recorded values: PubChem BioAssay (NCI)

assay: NCI Yeast Anticancer Drug Screen. Data for the mlh1 rad18 strain (AID 175); conditions: S. cerevisiae mlh1 rad18 strain growth inhibition; at 50.0 µM; stronger effect = higher value
About 79,000 compounds went through this panel and 15% of them were active in at least one assay; those are over-represented in the sample as a whole.
endpoint_name: growth inhibition (%)
// units = %; emit number, no label

Past entries and their recorded results:
CCN(CC)CCCNc1ncnc2onc(C)c12 ... -9.3
CSc1nc(NC2OC(COC(C)=O)C(OC(C)=O)C(OC(C)=O)C2OC(C)=O)c(-c2csc(N)n2)c(=O)n1C (configuration not stated) ... 13.3
CC(C)N(C(=O)c1cccc([N+](=O)[O-])c1)C(C)C ... 15.8
C=CCc1cccc(C)c1O ... 20.3
CCOC(=O)c1cc(C)nc2c(Cl)cc(Cl)cc12 ... 7.95
O=S(=O)(Nc1ccn(-c2ccccc2)n1)c1ccc(NCc2c3ccccc3nc3cc(Cl)ccc23)cc1 ... 23.6
Nc1ncnc2c1ncn2C1CCN(CCO)C1=O (configuration not stated) ... -14.8
CSc1ccc(OC(=O)C(C)NC(=O)C(CO)NC(=O)OCc2ccccc2)cc1 (configuration not stated) ... 15.2
CN(C)CCN(C)CCN(C)CCN(C)C ... -6.7
O=C(CCc1n[nH]c(=S)o1)Nc1ccccc1 ... 35.3

(Q) Could you share which growth inhibition value was measured for CCCSc1nnc(SCCC)c2[nH]cnc12 ?
(A) -8.7

(Q) // growth inhibition lookup, key: CS(=O)(=O)OC1CCCSc2ccccc21 (configuration not stated)
(A) -25.4

(Q) Returns the measured growth inhibition for the input molecule. Input: CCCC1SC(=S)N(c2ccc(Cl)cc2)C1=O (configuration not stated)
(A) 9.9

(Q) Look up growth inhibition for this molecule: CC(=Nc1ccccc1)NO
(A) 2.1

(Q) Any idea what growth inhibition was measured for CCC1C[N+]2(C)CCc3cc(OC)c(OC)cc3C2CC1=O (configuration not stated) ?
(A) 7

(Q) Which growth inhibition value belongs to O=C(Nc1ccc(F)cc1)Nc1ccc(F)cc1 ?
(A) -16.6

(Q) What value of growth inhibition has been reported for the following molecule? CCOc1nc(N)nc(C)c1N=Nc1cccc([N+](=O)[O-])c1
(A) 32

(Q) What does the data say about its growth inhibition? Entry: Nn1nc2ccccc2n1
(A) 1.45

(Q) Please report the recorded growth inhibition for O=C1Oc2cc3c(c4cccc1c24)O[C@H](c1ccccc1)[C@@H](c1ccccc1)[C@@H]3c1ccc(Cl)cc1 .
(A) 9.3

(Q) What growth inhibition value was documented for this molecule, NC(=S)SCCC(=O)N1CCCC1 ?
(A) -1.7

###

assay: NCI Yeast Anticancer Drug Screen. Data for the mec2-1 strain (AID 157); conditions: S. cerevisiae mec2-1 strain, at 50.0 µM, stronger effect = higher value
The panel holds about 79,000 compounds, 15% with a hit somewhere; the sample as a whole holds those more often.
endpoint_name: growth inhibition (%)
Give the value, in units of %, as a plain number.

CC1CC(=O)Nc2nc(N)ncc21 (stereo not drawn) ... 21.8
CC1OC(OC2C(OC(=O)[C@]34CCC(C)(C)C[C@H]3C3=CC[C@@H]5[C@@]6(C)CC[C@H](OC7OC(C(=O)O)C(O)C(OC8OCC(O)C(O)C8O)C7O)C(C)(C)[C@@H]6CC[C@@]5(C)[C@]3(C)CC4)OCC(O)C2O)C(O)C(OC2OCC(O)C(O)C2O)C1OC1OCC(O)C(OC2OCC(O)C(O)C2O)C1O (stereo partly drawn) ... 21.2

(Q) Fill blank: measured growth inhibition of the molecule CC1CCC2c3c([nH]c4ccccc34)C3C(=O)N(C4CCCCC4)C(=O)C3C2C1 (stereo not drawn) is ____.
(A) 0.25

(Q) So what's the measured growth inhibition for this one? Cc1cc([NH-])c([NH-])cc1C.[Cl][Pt+2][Cl]
(A) -6.4

(Q) What value of measured growth inhibition is listed for Cn1c(=O)c2c(nc(CCCCCCCCc3nc4c(c(=O)n(C)c(=O)n4C)n3C)n2C)n(C)c1=O ?
(A) 19.9
